We begin with a simple list: items and their reported Ki.
- TESTED TARGET: quadruple mutant N51I + C59R + S108N + I164L (QM) pfDHFR (Plasmodium falciparum, UniProt P13922, I164L/N51I)
- Sequence (P13922 whole entry N51I/I164L): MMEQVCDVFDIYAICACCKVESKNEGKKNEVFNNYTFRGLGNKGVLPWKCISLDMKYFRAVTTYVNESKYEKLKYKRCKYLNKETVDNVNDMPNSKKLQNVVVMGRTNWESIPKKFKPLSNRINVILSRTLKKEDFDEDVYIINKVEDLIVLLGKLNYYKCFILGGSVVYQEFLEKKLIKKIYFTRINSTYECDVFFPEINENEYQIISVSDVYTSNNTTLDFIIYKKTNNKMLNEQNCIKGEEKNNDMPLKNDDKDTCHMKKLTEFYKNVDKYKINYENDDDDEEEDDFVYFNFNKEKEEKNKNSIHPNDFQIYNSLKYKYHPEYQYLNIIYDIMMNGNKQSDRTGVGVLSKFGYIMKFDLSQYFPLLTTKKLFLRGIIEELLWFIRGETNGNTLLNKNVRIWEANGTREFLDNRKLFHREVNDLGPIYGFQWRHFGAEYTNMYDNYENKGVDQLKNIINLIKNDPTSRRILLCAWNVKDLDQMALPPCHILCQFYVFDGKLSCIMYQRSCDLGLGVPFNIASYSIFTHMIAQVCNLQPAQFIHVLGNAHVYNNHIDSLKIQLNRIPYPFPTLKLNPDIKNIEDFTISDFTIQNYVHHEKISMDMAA
- METHOD NOTES: Inhibition of quadruple mutant pfDHFR (Ki)
- Description: The synthesized 2,4-diamino-6-ethylpyrimdine derivatives as the hydrochloride salts were tested for the activities against Plasmodium falciparum (P. falciparum) according to the standard methods. These include the inhibition of dihydrofolate reductase (DHFR) enzymes of P. falciparum including, wild type (WT) and quadruple mutants (N51IC59RS108NI164L) (QM). The inhibition was expressed as inhibition constants (Ki) in nano molar (nM).

COMPOUND: CCc1nc(N)nc(N)c1OCCc1coc(-c2ccccc2)n1 [Compound 58]
Ki, nM: 4.63

COMPOUND: CCc1nc(N)nc(N)c1OCc1csc(-c2ccc(C(=O)O)cc2)n1 [Compound 75]
Ki, nM: 39.2

COMPOUND: CCc1nc(N)nc(N)c1OCc1cc(-c2cccc(C(F)(F)F)c2)no1 [Compound 37]
Ki, nM: 106

COMPOUND: CCc1nc(N)nc(N)c1-c1cn(CCOc2ccc(C(=O)OC)cc2)nn1 [Compound 10]
Ki, nM: 6.96

COMPOUND: CCc1nc(N)nc(N)c1-c1cn(-c2cccc(C(=O)O)c2)nn1.Cl [Compound 2, Hydrochloride]
Ki, nM: 6650

* * *

- TESTED TARGET: wild type (WT) pfDHFR (Plasmodium falciparum, UniProt P13922, N108S/R59C)
- Sequence (P13922 whole entry R59C/N108S): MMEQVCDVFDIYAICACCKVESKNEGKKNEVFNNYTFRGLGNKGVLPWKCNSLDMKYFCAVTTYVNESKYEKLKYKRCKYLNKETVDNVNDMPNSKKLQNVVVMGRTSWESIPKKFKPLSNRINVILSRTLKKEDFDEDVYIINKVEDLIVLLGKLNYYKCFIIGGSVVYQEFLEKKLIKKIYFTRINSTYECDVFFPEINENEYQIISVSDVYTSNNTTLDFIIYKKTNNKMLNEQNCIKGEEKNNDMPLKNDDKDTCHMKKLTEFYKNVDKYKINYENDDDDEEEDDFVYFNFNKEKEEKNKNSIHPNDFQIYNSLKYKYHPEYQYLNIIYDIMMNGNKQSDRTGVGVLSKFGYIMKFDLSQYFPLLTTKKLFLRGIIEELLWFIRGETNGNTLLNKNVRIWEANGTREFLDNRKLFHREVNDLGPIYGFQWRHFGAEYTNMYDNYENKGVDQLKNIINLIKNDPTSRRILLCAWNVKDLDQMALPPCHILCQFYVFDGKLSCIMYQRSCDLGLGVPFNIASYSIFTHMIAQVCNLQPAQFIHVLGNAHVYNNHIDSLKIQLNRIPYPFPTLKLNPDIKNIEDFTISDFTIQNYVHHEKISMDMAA
- METHOD NOTES: Inhibition of wild type pfDHFR (Ki)
pKi: −log10 of the molar value.

SMILES INPUT: CCc1nc(N)nc(N)c1OCc1cc(-c2ccc(Br)cc2)no1
pKi: 8.99

SMILES INPUT: CCc1nc(N)nc(N)c1OCc1cn(-c2ccc(C(=O)OC)cc2)nn1
pKi: 8.18

SMILES INPUT: CCc1nc(N)nc(N)c1OCc1cn(-c2ccc([N+](=O)[O-])cc2)nn1
pKi: 7.37

SMILES INPUT: CCc1nc(N)nc(N)c1OCCCc1cc(-c2cccc(C#N)c2)no1
pKi: 9.57

SMILES INPUT: CCc1nc(N)nc(N)c1OCc1cn(-c2ccccc2)nn1
pKi: 8.49

* * *

We begin with a simple list: items and their reported pIC50.
- METHOD NOTES: in vitro
- CONDITION LABEL: African green monkey
pIC50: −log10 of the molar value.

COMPOUND: CCc1nc(N)nc(N)c1-c1cn(Cc2ccc(OC(=O)N(c3ccccc3)c3ccccc3)cc2)nn1 [Compound 6]
pIC50: < 4.60

COMPOUND: CCc1nc(N)nc(N)c1OCc1coc(-c2cccc([N+](=O)[O-])c2)n1 [Compound 52]
pIC50: < 4.30

COMPOUND: CCc1nc(N)nc(N)c1-c1cn(-c2ccccc2)nn1 [Compound 1]
pIC50: < 4.30

COMPOUND: CCc1nc(N)nc(N)c1OCc1cn(Cc2ccc(C(=O)O)cc2)nn1 [Compound 29]
pIC50: < 4.60

COMPOUND: CCc1nc(N)nc(N)c1OCc1csc(-c2cccc(OCC(=O)OCc3ccccc3)c2)n1 [Compound 63]
pIC50: < 4.30

COMPOUND: CCc1nc(N)nc(N)c1OCCCc1cn(-c2ccc(C(=O)O)cc2)nn1 [Compound 25]
pIC50: 5.19

COMPOUND: CCc1nc(N)nc(N)c1OCc1cc(-c2ccc(F)cc2)no1 [Compound 34]
pIC50: < 4.60

COMPOUND: CCc1nc(N)nc(N)c1OCc1cn(-c2ccc(C(=O)OC)cc2)nn1 [Compound 18]
pIC50: < 4.30

COMPOUND: CCc1nc(N)nc(N)c1OCc1coc(-c2cccc(OCC(=O)OCc3ccccc3)c2)n1 [Compound 53]
pIC50: < 5.00

COMPOUND: CCc1nc(N)nc(N)c1OCCc1cn(-c2cccc(C(=O)O)c2)nn1 [Compound 20]
pIC50: < 4.60

COMPOUND: CCc1nc(N)nc(N)c1OCc1cn(-c2ccccc2)nn1 [Compound 13]
pIC50: < 4.60

COMPOUND: CCc1nc(N)nc(N)c1OCCCc1cn(Cc2ccc(C(=O)O)cc2)nn1 [Compound 32]
pIC50: < 4.30

COMPOUND: CCc1nc(N)nc(N)c1OCc1cn(-c2cccc([N+](=O)[O-])c2)nn1 [Compound 14]
pIC50: < 4.30

COMPOUND: CCc1nc(N)nc(N)c1OCc1csc(-c2ccc(C)cc2)n1 [Compound 67]
pIC50: 4.54

COMPOUND: CCc1nc(N)nc(N)c1OCc1csc(-c2ccc(Cl)cc2)n1 [Compound 70]
pIC50: 4.20

COMPOUND: CCc1nc(N)nc(N)c1OCc1cc(-c2ccc([N+](=O)[O-])cc2)no1 [Compound 43]
pIC50: < 4.30

COMPOUND: CCc1nc(N)nc(N)c1-c1cn(CCOc2ccc(C(=O)OC)cc2)nn1 [Compound 10]
pIC50: 4.41

COMPOUND: CCc1nc(N)nc(N)c1OCc1csc(-c2ccc(F)cc2)n1 [Compound 69]
pIC50: < 4.60

* * *

- TESTED TARGET: quadruple mutant N51I + C59R + S108N + I164L (QM) pfDHFR (Plasmodium falciparum, UniProt P13922, I164L/N51I)
- METHOD NOTES: Inhibition of quadruple mutant pfDHFR (Ki)
- Experimental: The synthesized 2,4-diamino-6-ethylpyrimdine derivatives as the hydrochloride salts were tested for the activities against Plasmodium falciparum (P. falciparum) according to the standard methods. These include the inhibition of dihydrofolate reductase (DHFR) enzymes of P. falciparum including, wild type (WT) and quadruple mutants (N51IC59RS108NI164L) (QM). The inhibition was expressed as inhibition constants (Ki) in nano molar (nM).
pKi: −log10 of the molar value.
READOUT KIND: pKi

SMILES INPUT: CCc1nc(N)nc(N)c1OCc1coc(-c2cccc(OCC(=O)O)c2)n1
REPORTED VALUE: 6.58
--
SMILES INPUT: CCc1nc(N)nc(N)c1-c1cn(CCCc2ccccc2)nn1
REPORTED VALUE: 7.30
--
SMILES INPUT: CCc1nc(N)nc(N)c1OCc1cn(-c2ccc(C(=O)O)cc2)nn1
REPORTED VALUE: 6.17
--
SMILES INPUT: CCc1nc(N)nc(N)c1OCc1cn(-c2ccccc2)nn1
REPORTED VALUE: 6.42
--
SMILES INPUT: CCc1nc(N)nc(N)c1OCCCc1cc(-c2cccc(C#N)c2)no1
REPORTED VALUE: 8.99
--
SMILES INPUT: CCc1nc(N)nc(N)c1OCc1coc(-c2ccc(OCC(=O)O)cc2)n1
REPORTED VALUE: 7.11
--
SMILES INPUT: CCc1nc(N)nc(N)c1-c1cn(CCCOc2ccc(Cl)cc2)nn1
REPORTED VALUE: 7.49
--
SMILES INPUT: CCc1nc(N)nc(N)c1OCc1csc(-c2ccc(OCC(=O)O)cc2)n1
REPORTED VALUE: 7.54
--
SMILES INPUT: CCc1nc(N)nc(N)c1OCc1coc(-c2ccc(OCC(=O)OCc3ccccc3)cc2)n1
REPORTED VALUE: 7.33

* * *

- Tested on: P. falciparum TM4/8.2 (wild type)
- METHOD NOTES: microbe, parasite or virus in culture
- Format: cell-based, Plasmodium falciparum
- CONDITION LABEL: Plasmodium falciparum; in vitro, wild-type strain TM4/8.2; read-out: IC50 P. falciparum TM4/8.2 (WT)
Binary label based on IC50 with cut-off 1 µM: below gives fulfilled, not below gives not fulfilled.

MOLECULE: CCc1nc(N)nc(N)c1OCCc1cn(Cc2ccc(O)cc2)nn1
LABEL VALUE: not fulfilled
--
MOLECULE: CCc1nc(N)nc(N)c1OCCCc1cn(Cc2ccc(C(=O)O)cc2)nn1
LABEL VALUE: fulfilled
--
MOLECULE: CCc1nc(N)nc(N)c1OCc1cc(-c2cccc([N+](=O)[O-])c2)no1
LABEL VALUE: not fulfilled
--
MOLECULE: CCc1nc(N)nc(N)c1OCCc1cn(-c2cccc(C(=O)O)c2)nn1
LABEL VALUE: fulfilled
--
MOLECULE: CCc1nc(N)nc(N)c1-c1cn(-c2cccc(C(=O)O)c2)nn1.Cl [Compound 2, Hydrochloride]
LABEL VALUE: not fulfilled
--
MOLECULE: CCc1nc(N)nc(N)c1OCc1cc(-c2ccc(C(=O)O)cc2)no1
LABEL VALUE: not fulfilled

* * *

Protein target, amino acids: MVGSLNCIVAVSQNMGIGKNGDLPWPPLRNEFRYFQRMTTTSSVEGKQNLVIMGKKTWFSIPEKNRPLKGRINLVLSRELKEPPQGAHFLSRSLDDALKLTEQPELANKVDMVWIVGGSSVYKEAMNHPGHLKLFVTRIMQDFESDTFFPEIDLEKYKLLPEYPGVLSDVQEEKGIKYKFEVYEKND
pKi: −log10 of the molar value.

COMPOUND: CCc1nc(N)nc(N)c1OCCc1coc(-c2ccccc2)n1 [Compound 58]
PREFIX OPERATOR: =
pKi: 7.69
--
COMPOUND: CCc1nc(N)nc(N)c1OCc1cc(-c2ccc(F)cc2)no1 [Compound 34]
PREFIX OPERATOR: =
pKi: 5.97
--
COMPOUND: CCc1nc(N)nc(N)c1OCc1csc(-c2cccc(C(=O)OC)c2)n1 [Compound 65]
PREFIX OPERATOR: =
pKi: 6.71
--
COMPOUND: CCc1nc(N)nc(N)c1OCc1cc(-c2cccc(OC)c2)no1 [Compound 38]
PREFIX OPERATOR: =
pKi: 5.97
--
COMPOUND: CCc1nc(N)nc(N)c1OCc1cc(-c2ccc(C(=O)O)cc2)no1 [Compound 44]
PREFIX OPERATOR: <
pKi: 4.00
--
COMPOUND: CCc1nc(N)nc(N)c1OCc1coc(-c2cccc(OCC(=O)O)c2)n1 [Compound 54]
PREFIX OPERATOR: =
pKi: 6.27
--
COMPOUND: CCc1nc(N)nc(N)c1OCCc1cn(-c2cccc(C(=O)O)c2)nn1 [Compound 20]
PREFIX OPERATOR: =
pKi: 7.10
--
COMPOUND: CCc1nc(N)nc(N)c1OCc1cn(-c2cccc(C(=O)O)c2)nn1.Cl [Compound 16, Hydrochloride]
PREFIX OPERATOR: =
pKi: 6.09
--
COMPOUND: CCc1nc(N)nc(N)c1-c1cn(CCc2ccccc2)nn1 [Compound 7]
PREFIX OPERATOR: =
pKi: 5.49

src = patent US11028072B2
